meta.source: patent US20220062240A1

assay: Plasma pharmacokinetics after single IV bolus or oral dose; type: in vivo, mice; conditions: mouse, plasma; PO, 10 mg/kg, male Balb/c mice

Compound: CN1CCN(c2cc(C(=O)Nc3cc4cc(-c5cnn(C)c5)ccc4cn3)ccn2)CC1 [Compound 12]
Tmax / h: 2

====

tested on: HCC1599; assay: CellTiter-Glo Viability Assay, breast cancer; format: cell-based; details: Homo sapiens, HCC1599, 96 h
pEC50: −log10 of the molar value.

Molecular String: CN1CCC(N(C)c2cc(C(=O)Nc3cc4cc(-c5cnn(C)c5)ccc4cn3)ccn2)CC1
pEC50: 6.83
--
Molecular String: CN1CCN(C(=O)C(C)(C)c2ccc(C(=O)Nc3cn4cc(-c5ccncc5)ccc4n3)cc2)CC1
pEC50: 5.09
--
Molecular String: CN1CCN(c2cc(C(=O)Nc3cc4cc(-c5cnn(C)c5)ccc4cn3)ccn2)CC1
pEC50: 6.99
